Entries with reported pIC50 on Urease (Canavalia ensiformis, UniProt P07374)
Sequence (P07374 whole entry): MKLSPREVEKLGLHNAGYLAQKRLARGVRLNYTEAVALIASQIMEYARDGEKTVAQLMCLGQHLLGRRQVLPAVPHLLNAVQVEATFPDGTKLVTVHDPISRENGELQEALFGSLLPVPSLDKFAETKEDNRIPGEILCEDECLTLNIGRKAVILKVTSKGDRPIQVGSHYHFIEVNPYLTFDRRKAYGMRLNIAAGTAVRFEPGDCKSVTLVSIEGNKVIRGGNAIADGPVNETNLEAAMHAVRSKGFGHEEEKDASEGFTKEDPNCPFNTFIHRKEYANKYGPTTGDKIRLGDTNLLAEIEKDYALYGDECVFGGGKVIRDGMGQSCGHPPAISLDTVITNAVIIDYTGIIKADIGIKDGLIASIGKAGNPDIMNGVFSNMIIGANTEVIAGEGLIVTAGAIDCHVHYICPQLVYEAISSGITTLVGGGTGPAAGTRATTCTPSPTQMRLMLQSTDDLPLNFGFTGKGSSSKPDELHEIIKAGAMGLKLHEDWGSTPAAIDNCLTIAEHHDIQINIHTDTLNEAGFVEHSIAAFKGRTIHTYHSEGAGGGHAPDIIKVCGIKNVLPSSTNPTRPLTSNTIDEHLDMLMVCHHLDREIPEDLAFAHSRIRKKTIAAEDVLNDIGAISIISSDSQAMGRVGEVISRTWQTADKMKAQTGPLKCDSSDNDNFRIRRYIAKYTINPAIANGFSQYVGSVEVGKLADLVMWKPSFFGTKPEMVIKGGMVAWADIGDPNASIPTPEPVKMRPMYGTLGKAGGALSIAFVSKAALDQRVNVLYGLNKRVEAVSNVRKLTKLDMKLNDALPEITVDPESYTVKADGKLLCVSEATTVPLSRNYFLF
Would you please state pIC50, meaning minus log10 of the concentration in mol/L, as a bare number?

Inquiry: Find the measured pIC50 of O=COc1ccc(C2CC(c3ccccc3O)=Nc3ccccc3S2)cc1OC=O (stereo unspecified) [Dihydro-1,5-benzothiazepine analog, 4] and report it.
Reply text: 4.72

---

target: Urease (Canavalia ensiformis, UniProt P07374); experiment: Inhibition Assay
Some compounds, each annotated with its measured pIC50.
Interpret pIC50 as the negative base-10 log of the concentration measured in mol/L.

* c1ccc(C2=Nc3ccccc3SC(c3ccccc3)C2)cc1 (stereo not given) [Dihydro-1,5-benzothiazepine analog, 2] | 4.58

Inquiry: Supply measured pIC50 of O=[N+]([O-])c1ccc(C2CC(c3ccccc3)=Nc3ccccc3S2)cc1 (stereo not given) [Dihydro-1,5-benzothiazepine analog, 5] in your reply.
Reply text: 4.44

---

biological target: Urease (Canavalia ensiformis, UniProt P07374)
A collection of compounds and their measured IC50
I only need the number, in µM, no unit after it.

Inquiry: Please tell me the measured IC50 for Oc1ccccc1C1CC(c2ccccc2)Sc2ccccc2N1 (stereo not drawn) ; system: Urease (Canavalia ensiformis, UniProt P07374).
Reply text: 91.2

Inquiry: Please indicate recorded IC50 of Oc1ccccc1C1CC(c2ccc(F)cc2)Sc2ccccc2N1 (stereo not drawn) measured with Urease (Canavalia ensiformis, UniProt P07374).
Reply text: 93.7

Inquiry: Under Urease (Canavalia ensiformis, UniProt P07374): report IC50 of Cc1ccc(C2CC(c3ccccc3)=Nc3ccccc3S2)cc1 (stereo not drawn) [Dihydro-1,5-benzothiazepine analog, 3] .
Reply text: 24.6
